Tested on: mice
Assay: Acute toxicity by intravenous administration
Assay type: in vivo
Conditions: intravenously administered to tail vein in mice at the dose of 50 mg/kg
value_type: mortality (dead/used)

Field request: mortality (dead/used) | item: CCCCCCCCCCCCCCCCOCC(COCCCC[N+](C)(C)C)C(C)C (racemic) [Example 2(b)]
2/5

Now consider CCCCCCCCCCCCCCCCOCC(COCCCCCCC[N+](C)(C)C)OCC (racemic) [5(a)] and answer again.
0/5

CCCCCCCCCCCCCCCCOCC(COCCCCCCC[N+](C)(C)C)OCCC (racemic) [5(b)] , same question.
0/5

Quick one: CCCCCCCCCCCCCCCCOCC(COCCCCCCC[N+](C)(C)C)OC (racemic) [Example 5]
0/5
